System: Saccharomyces cerevisiae
experimental_details: protein stability index of tFT-peptide fusion (C-terminal peptide) (PSI (0-1 scale)); higher = more stable (slower turnover)
study_conditions: genetic background: wild type; temperature: 30 C
protein stability index by entry:
measured_attribute: protein stability index

* VAAGVFIEHDEL [YOS9 C-terminal 12 aa] | 0.702
* RVKSLKVGRKSQ [PAL1 C-terminal 12 aa] | 0.684
* GNNKKKRSVKRE [PBN1 C-terminal 12 aa] | 0.717

* * *

Tested on: Saccharomyces cerevisiae
experimental_details: protein stability index of tFT-peptide fusion (C-terminal peptide) (PSI (0-1 scale)); higher = more stable (slower turnover)
study_conditions: genetic background: wild type; temperature: 30 C
measured_attribute: protein stability index

• VWFFGVVLGGLW = 0.444
• ESSKVRNLELLK = 0.669
• LYIHFIRSYPTI = 0.635
• PLSPSLPNPCSL = 0.706
• LHLDTMPQEKNN = 0.668
• GSQVGVRWGRFG = 0.675
• VRARRSSREVNY = 0.755
• CMILVACFYLPS = 0.321
• CRGWVRVAGLRA = 0.604
• PPGVTPLSLCAC = 0.534
• IWRLLLPLPNPF = 0.688
• SPPPPRPRPCAI = 0.753
• VFSVSVLFLFFH = 0.377
• GGFDDIYVPIFV = 0.694
• FCSVTLPSRSCV = 0.727
• VSGSTGVWCRWG = 0.668
• VVQLSKWSTIIR = 0.64
• GLLEGGLWVWGL = 0.692
• VLTWGLLGRSAF = 0.729
• SLDDWSAVFHVV = 0.542
• PPRPPHPAPSPH = 0.638
• RISIHGECHFHK = 0.654
• PPPLPPQTLTFC = 0.729
• KKEERTQKNEKK = 0.654
• SGLRHACTPKSD = 0.671
• PPPPLRPHHLTS = 0.696
• PPPPGPPPPSSL = 0.691
• GRGEGVDRSSRR = 0.703
• LWFLDYVFICFL = 0.382
• GKRLKKTRTKKS = 0.704
• DPPLPAHPDVPP = 0.771
• PTLRAPLRYGYL = 0.675
• WSNICFWCGVWS = 0.458
• QSPTFLTPLALA = 0.653

Data provenance is the supplement of paper PMC10724198.
